- Test system: Abutilon
- Procedure Summary: Example B4: post-emergence action, 250 g/ha
- Type: in vivo
- Assay Setup: 250 g of AS/ha, sprayed in the 2-3-leaf stage, 0.2% X77, 3 weeks, nine-level scale 1=complete damage, 9=no effect
Recorded Endpoint: Post-emergence action: Abutilon (rating)
Enter the number alone.

Below, each entry is followed by its recorded Post-emergence action: Abutilon (rating) result.
- Molecule: "Cc1ccc(C(=O)C2=C(O)C3CCC(C3)C2=O)c(C(F)(F)F)n1 (stereo not shown) [Compound 1.361]"
  Recorded Endpoint: "Post-emergence action: Abutilon (rating)"
  Endpoint Value: 2
- Molecule: "O=C(C1=C(O)C2CCC(C2)C1=O)c1ccc(OCC(F)(F)F)nc1C(F)(F)F (stereo not shown) [Compound 1.349]"
  Recorded Endpoint: "Post-emergence action: Abutilon (rating)"
  Endpoint Value: 2
- Molecule: "CC[S+]([O-])c1ccc(C(=O)C2=C(O)C3CCC(C3)C2=O)c(C(F)(F)F)n1 (stereo not shown) [Compound 1.343]"
  Recorded Endpoint: "Post-emergence action: Abutilon (rating)"
  Endpoint Value: 3

Incoming: Recall the recorded Post-emergence action: Abutilon (rating) for CCSc1ccc(C(=O)C2=C(O)C3CCC(C3)C2=O)c(C(F)(F)F)n1 (stereo not shown) [Compound 1.341] with Abutilon and state it.
Outgoing: 5

* * *

Recorded Endpoint: melting point

As a guide, the following entries are already answered.
- Compound: "COc1nc(C(=O)C2=C(O)C3CCC(C3)C2=O)ccc1C(F)(F)F (stereo not drawn) [Compound 2.038]"
  Recorded Endpoint: "melting point"
  Endpoint Value: "111 to 113 °C"
- Compound: "Cc1nc(C(F)(F)F)ccc1C(=O)C1=C(S(=O)(=O)c2ccc(Cl)cc2)C2CCC(C2)C1=O (stereo not drawn) [Compound 1.414]"
  Recorded Endpoint: "melting point"
  Endpoint Value: "166 to 167 °C"
- Compound: "Cc1nc(C(F)(F)F)ccc1C(=O)C1=C(O)C(C)(C)C=C(S(C)(=O)=O)C1=O [Compound 5.084]"
  Recorded Endpoint: "melting point"
  Endpoint Value: "215 to 216 °C"
- Compound: "Cc1nc(C(F)(F)F)ccc1C(=O)C1=C(Cl)C2CCC(C2)C1=O (stereo not drawn) [Compound 1.398]"
  Recorded Endpoint: "melting point"
  Endpoint Value: "137 to 138 °C"
- Compound: "Cc1nc(C(F)(F)F)ccc1C(=O)C1=C(O)CC(NC(=O)NC(C)(C)C)CC1=O (stereo not drawn) [Compound 6.111]"
  Recorded Endpoint: "melting point"
  Endpoint Value: "163 to 164 °C"

Incoming: Need melting point of CCC(=O)NC1CC(=O)C(C(=O)c2ccc(C(F)(F)F)nc2C)=C(O)C1 (stereo not drawn) [Compound 6.006] , thanks.
Outgoing: 176 to 177 °C

Incoming: Using the record for Cc1nc(C(F)(F)F)ccc1C(=O)c1c([S+](C)[O-])noc1C1CC1 (stereo not drawn) [Compound 8.009] , report its melting point.
Outgoing: 96 to 97 °C

* * *

# melting point listing for each entry below

For orientation, consider the following solved cases.
- Compound: "O=C(C1=C(O)C2CCC(C2)C1=O)c1ccnc(C(F)(F)F)c1 (centres unmarked)"
  melting point: "95 to 97 °C"
- Compound: "Cc1nc(C(F)(F)F)ccc1C(=O)C1=C(O)CC(NC(=O)C(C)C)CC1=O (centres unmarked)"
  melting point: "186 to 187 °C"

Incoming: Which melting point is listed for CSc1nccc(C(=O)C2=C(O)C3CCC(C3)C2=O)c1C#N (centres unmarked) ?
Outgoing: 108 to 110 °C

Incoming: melting point for O=C(C1=C(O)C2CCC(C2)C1=O)c1ncc(C(F)(F)F)cc1Cl (centres unmarked) ?
Outgoing: 105 to 106 °C

Incoming: GET /values?readout=melting point&item= CSc1nc(C(=O)C2=C(O)C3CCC(C3)C2=O)ccc1C(F)(F)F (centres unmarked)
Outgoing: 107 to 110 °C
